procedure summary: clinical
setup conditions: human, in vivo, iv, 187.5 mg/m2
readout: Cmax (ng/mL)
Write it as a number; the unit ng/mL goes unstated.

input: If you can, please state the reported Cmax value of `CN(C)CCCNC(=O)/C(=C/CCCCC(=O)NO)COc1cccc2ccccc12.O=P(O)(O)O` .
output: 9550

====

procedure summary: clinical
setup conditions: human, in vivo, iv, 312.5 mg/m2
readout: Cmax (ng/mL)
Answer with a number only, understood to be in ng/mL.

input: Field request: Cmax | item: `CN(C)CCCNC(=O)/C(=C/CCCCC(=O)NO)COc1cccc2ccccc12.O=P(O)(O)O`
output: 12800

====

procedure summary: clinical
setup conditions: human, in vivo, iv, 250 mg/m2
readout: half-life (min)
Report only the number, with the unit min understood.

input: Value lookup for half-life; key = CN(C)CCCNC(=O)/C(=C/CCCCC(=O)NO)COc1cccc2ccccc12.O=P(O)(O)O [ivaltinostat]
output: 342

====

procedure summary: clinical
setup conditions: human, in vivo, iv, 187.5 mg/m2
readout: AUC(0-t) (ng·h/mL)
Numeric answer only, unit ng·h/mL assumed.

input: Name the reported AUC(0-t) value associated with the molecule `CN(C)CCCNC(=O)/C(=C/CCCCC(=O)NO)COc1cccc2ccccc12.O=P(O)(O)O`
output: 28300

====

procedure summary: clinical
setup conditions: human, in vivo, iv, 312.5 mg/m2
readout: AUC(0-t) (ng·h/mL)
Your answer should be a plain number; it is taken to be in ng·h/mL.

input: // AUC(0-t) lookup, key: CN(C)CCCNC(=O)/C(=C/CCCCC(=O)NO)COc1cccc2ccccc12.O=P(O)(O)O [ivaltinostat]
output: 65400

====

procedure summary: clinical
setup conditions: human, in vivo, iv, 250 mg/m2
readout: Cmax (ng/mL)
Output spec: scalar in ng/mL, unitless text.

input: # Cmax lookup, item `CN(C)CCCNC(=O)/C(=C/CCCCC(=O)NO)COc1cccc2ccccc12.O=P(O)(O)O`
output: 8060

====

procedure summary: clinical
setup conditions: human, in vivo, iv, 187.5 mg/m2
readout: half-life (h)
Give a bare numeral; the unit h is implied.

input: // half-life lookup, key: `CN(C)CCCNC(=O)/C(=C/CCCCC(=O)NO)COc1cccc2ccccc12.O=P(O)(O)O`
output: 7.3

====

procedure summary: clinical
setup conditions: human, in vivo, iv, 312.5 mg/m2
readout: half-life (h)
Report only the number, with the unit h understood.

input: Report half-life for CN(C)CCCNC(=O)/C(=C/CCCCC(=O)NO)COc1cccc2ccccc12.O=P(O)(O)O [ivaltinostat] please.
output: 6.6
